Attribution: patent US20210139484A1

Provide the recorded IC50 for the entries that follow.
# assayed.system: human HPK1 protein (Homo sapiens)
# Construct: recombinant human HPK1 protein (a.a. 1-346) was expressed in Sf9 insect cells; GST (N); purchased Signalchem M23-11G; host or cells: Sf9 insect cells (baculovirus)
# protocol.description: Human HPK1 protein TR-FRET assay
# Assay type: biochemical
# experimental.setup: 1 mM ATP, Table 19

Consider the following illustrative entries.
# compound, experimental.endpoint, value.observed
data = [
    ("CCC1CN(C(=O)Nc2ccc(CN3CCN(CC)CC3)c(C(F)(F)F)c2)Cc2cc(Oc3ccnc4[nH]c(C)cc34)cnc21 (single isomer, unassigned) [VII-22]", "IC50", "< 500 nM"),
    ("CCN1CCN(Cc2ccc(NC(=O)N3CCc4ccc(Oc5ccnc6[nH]c(CCO)cc56)cc4[C@@H]3C)cc2C(F)(F)F)CC1", "IC50", "< 500 nM"),
    ("CCN1CCN(Cc2ccc(NC(=O)N3CCc4ccc(Oc5ccnc6[nH]ncc56)cc4C3)cc2C(F)(F)F)CC1", "IC50", "< 500 nM"),
    ("CCN1CCN(Cc2ccc(NC(=O)N3CCc4ccc(Oc5ccnc(C#N)c5)cc4[C@@H]3C)cc2C(F)(F)F)CC1", "IC50", "500 to 5000 nM"),
    ("CCN1CCN(Cc2ccc(NC(=O)N3CCc4ncc(Oc5ccnc6[nH]ncc56)cc4C3C)cc2C(F)(F)F)CC1 (stereo not shown) [VIII-3]", "IC50", "500 to 5000 nM"),
]

Please give IC50 for each item listed below.
1. CCN1CCN(Cc2ccc(NC(=O)N3CCc4cc(F)c(Oc5ccnn6cccc56)cc4C3C)cc2C(F)(F)F)CC1 (stereo not shown) [IV-31]
2. Cc1cc2c(Oc3ccc4c(c3)[C@H](C)N(C(=O)Nc3cnc(OC5CN(C)C5)c(C(F)(F)F)c3)CC4)ccnc2[nH]1

Output line:
1: < 500 nM; 2: 500 to 5000 nM

###

Provide the recorded IC50 for the entries that follow.
# assayed.system: human HPK1 protein (Homo sapiens, UniProt Q92918)
# Construct: recombinant human HPK1 protein (a.a. 1-346) was expressed in Sf9 insect cells; GST (N); purchased Signalchem M23-11G; host or cells: Sf9 insect cells (baculovirus)
# Sequence (Q92918 1-346): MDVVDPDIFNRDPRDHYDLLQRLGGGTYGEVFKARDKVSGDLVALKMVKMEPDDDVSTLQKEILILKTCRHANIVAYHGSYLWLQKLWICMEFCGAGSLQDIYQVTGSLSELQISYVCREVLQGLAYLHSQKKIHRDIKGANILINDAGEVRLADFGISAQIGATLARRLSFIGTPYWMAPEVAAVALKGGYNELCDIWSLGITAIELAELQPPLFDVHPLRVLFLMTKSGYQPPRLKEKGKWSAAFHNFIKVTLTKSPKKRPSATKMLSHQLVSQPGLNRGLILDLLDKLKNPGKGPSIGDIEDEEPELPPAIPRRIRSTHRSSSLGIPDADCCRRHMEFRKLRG
# protocol.description: Human HPK1 protein TR-FRET assay
# Format: biochemical
# experimental.setup: 1 mM ATP, Table 19

# compound, assayed.system, IC50
measured = [
    ("CCN1CCN(Cc2ccc(NC(=O)N3CCc4ccc(Oc5ncnc6[nH]ncc56)cc4C3)cc2C(F)(F)F)CC1", "human HPK1 protein (Homo sapiens, UniProt Q92918)", "< 500 nM"),
    ("CN1CCC(Oc2ccc(NC(=O)N3CCc4ccc(Oc5ncnn6cccc56)cc4C3)cc2C(F)(F)F)CC1", "human HPK1 protein (Homo sapiens, UniProt Q92918)", "500 to 5000 nM"),
    ("CCN1CCN(Cc2ccc(NC(=O)C3CCc4ccc(Oc5ncnn6cccc56)cc4C3)cc2C(F)(F)F)CC1 (stereo not shown)", "human HPK1 protein (Homo sapiens, UniProt Q92918)", "< 500 nM"),
    ("CCN1CCN(Cc2ccc(NC(=O)N3CCc4ccc(Oc5ccnn6cc(-c7c[nH]cn7)cc56)cc4C3)cc2C(F)(F)F)CC1", "human HPK1 protein (Homo sapiens, UniProt Q92918)", "< 500 nM"),
    ("CCN1CCN(Cc2ccc(NC(=O)N3CCc4cc(F)c(Oc5ncnn6cccc56)cc4C3C)cc2C(F)(F)F)CC1 (stereo not shown) [IV-34]", "human HPK1 protein (Homo sapiens, UniProt Q92918)", "> 10000 nM"),
]

Please give IC50 for each item listed below.
1. CCN1CCN(Cc2ccc(NC(=O)N3CCc4ccc(Oc5ccnc6[nH]ccc56)cc4[C@@H]3C)cc2Cl)CC1
2. CCN1CCN(Cc2ccc(NC(=O)N3CCc4cc(Br)c(Oc5ccnc6[nH]ccc56)cc4C3C)cc2C(F)(F)F)CC1 (stereo not shown)

Output line:
1. < 500 nM
2. < 500 nM
